Recorded values, source paper PMC4994030.

Biological target: T1, HER2-ECD (human epidermal growth factor receptor 2, extracellular domain) (Homo sapiens, UniProt P04626)
T1 construct: also called HER-ECD
Test: ELISA
Settings: one partner purified

- BINDER: "GH2-12 scFv (scFv, V domains shown, source: E. coli ER2738, secreted, in filtered culture supernatant) VH: EVQLVESGGGLVQPGGSLRLSCAASGFTINDWGIHWVRQAPGKGLEWVAGIWPYWGYTSYADSVKGRFTISADTSKNTAYLQMNSLRAEDTAVYYCARYHVYFWWMDYWGQGTLVTVSS VL: DIQMTQSPSSLSASVGDRVTITCRASQDVSNNVAWYQQKPGKAPKLLIYGPSFLYSGVPSRFSGSGSGTDFTLTISSLQPEDFATYYCQQYYNYPITFGQGTKVEIK"
  binding result: "binds"
- BINDER: "GH2-38 scFv (scFv, V domains shown, source: E. coli ER2738, secreted, in filtered culture supernatant) VH: EVQLVESGGGLVQPGGSLRLSCAASGFTISDGGIHWVRQAPGKGLEWVAGIGPYGGYTSYADSVKGRFTISADTSKNTAYLQMNSLRAEDTAVYYCARFGDNFIGVMDYWGQGTLVTVSS VL: DIQMTQSPSSLSASVGDRVTITCRASQDVFGGVAWYQQKPGKAPKLLIYGPSYLYSGVPSRFSGSGSGTDFTLTISSLQPEDFATYYCQQYSSWPITFGQGTKVEIK"
  binding result: "binds"
